Attribution: ChEMBL document CHEMBL3124779

Assay: AUC in rat at 3 mg/kg, po
Type: ADME, organism-based
Parameters: dose 3 mg/kg, route oral
Conditions: plasma
Returns one of true or false; true when AUC is >= 1000 ng·h/mL.

>  <SMI>
COC(=O)N[C@H](C(=O)N1CCC[C@H]1C(=O)Nc1ccc([C@@H]2CC[C@@H](c3ccc(NC(=O)[C@@H]4CCCN4C(=O)[C@@H](NC(=O)OC)[C@H]4CCOC4)cc3)N2c2ccc(F)cc2)cc1)[C@H]1CCOC1

>  <DISCRETE_LABEL>
false

$$$$

API: above_or_equal(metric=AUC, cutoff=1000 ng·h/mL) for item COC(=O)N[C@H](C(=O)N1CCC[C@H]1C(=O)Nc1ccc([C@@H]2CC[C@@H](c3ccc(NC(=O)[C@@H]4CCCN4C(=O)[C@@H](NC(=O)OC)C(C)(C)C)cc3)N2c2ccc(C(C)(C)C)cc2)cc1)C(C)(C)C
true

// next record COC(=O)N[C@H](C(=O)N1CCC[C@H]1C(=O)Nc1ccc([C@@H]2CC[C@@H](c3ccc(NC(=O)[C@@H]4CCCN4C(=O)[C@@H](NC(=O)OC)C(C)C)cc3)N2c2ccc(C(C)(C)C)cc2)cc1)C(C)C
false

// next record COC(=O)N[C@H](C(=O)N1CCC[C@H]1C(=O)Nc1ccc([C@@H]2CC[C@@H](c3ccc(NC(=O)[C@@H]4CCCN4C(=O)[C@@H](NC(=O)OC)C(C)C)cc3)N2c2ccc(F)cc2)cc1)C(C)C
false

// next record COC(=O)N[C@H](C(=O)N1CCC[C@H]1C(=O)Nc1ccc([C@H]2CC[C@H](c3ccc(NC(=O)[C@@H]4CCCN4C(=O)[C@@H](NC(=O)OC)C(C)(C)C)cc3)N2c2ccc(F)cc2)cc1)C(C)(C)C
true

====

Experiment: Tmax in rat at 3 mg/kg, po
Assay type: ADME, organism-based
Set-up: dose 3 mg/kg, route oral
Details: in vivo
MEASUREMENT_NAME: Tmax (h)
Answer in h, number only, no unit symbol.

Previously resolved entries follow.
>  <SMI>
COC(=O)N[C@H](C(=O)N1CCC[C@H]1C(=O)Nc1ccc([C@H]2CC[C@H](c3ccc(NC(=O)[C@@H]4CCCN4C(=O)[C@@H](NC(=O)OC)C(C)(C)C)cc3)N2c2ccc(C(C)(C)C)cc2)cc1)C(C)(C)C

>  <Tmax [h]>
2.5

$$$$
>  <SMI>
COC(=O)N[C@H](C(=O)N1CCC[C@H]1C(=O)Nc1ccc([C@H]2CC[C@H](c3ccc(NC(=O)[C@@H]4CCCN4C(=O)[C@@H](NC(=O)OC)C(C)C)cc3)N2c2ccc(C(F)(F)F)cc2)cc1)C(C)C

>  <Tmax [h]>
1.5

$$$$
>  <SMI>
COC(=O)N[C@H](C(=O)N1CCC[C@H]1C(=O)Nc1ccc([C@@H]2CC[C@@H](c3ccc(NC(=O)[C@@H]4CCCN4C(=O)[C@@H](NC(=O)OC)[C@H]4CCOC4)cc3)N2c2ccc(F)cc2)cc1)[C@H]1CCOC1

>  <Tmax [h]>
0.4

$$$$
>  <SMI>
COC(=O)N[C@H](C(=O)N1CCC[C@H]1C(=O)Nc1ccc([C@@H]2CC[C@@H](c3ccc(NC(=O)[C@@H]4CCCN4C(=O)[C@@H](NC(=O)OC)C(C)C)cc3)N2c2ccc(F)cc2)cc1)C(C)C

>  <Tmax [h]>
1

$$$$

Consider now this further compound.
# input compound: COC(=O)N[C@H](C(=O)N1CCC[C@H]1C(=O)Nc1ccc([C@@H]2CC[C@@H](c3ccc(NC(=O)[C@@H]4CCCN4C(=O)[C@@H](NC(=O)OC)C(C)(C)C)cc3)N2c2ccc(F)cc2)cc1)C(C)(C)C ; wanted: its Tmax
3
